tested on: U251 CNS; experiment: NCI tumour cell line growth inhibition, 48 h
// reported TGI per item

Problem: Which TGI is listed for CC(C)(O)C1OCC(C2CCC3(C)C4=CCC5C(C)(C)C(O)CCC5(C)C4CCC23C)CC1O (centres undefined) ?
Result: 27.5 µM

Problem: Which TGI is listed for CC(=O)OCC1OC(O[C@@H]2c3c(O)c4c(c(O)c3C3=C(NN(c5ccc([N+](=O)[O-])cc5[N+](=O)[O-])[Se]3=O)[C@@]2(C)O)C(=O)c2ccccc2C4=O)C(OC(C)=O)C(OC(C)=O)C1OC(C)=O (some centres undefined) ?
Result: 0.458 µM

Problem: Which TGI is listed for CN(C)CCNc1ccc2c(=O)n(CCN(C)C)c(=O)n3c4ccc(N)cc4c(=O)c1c23 ?
Result: 0.988 µM

Problem: Which TGI is listed for CCCCCc1c2nc(c(CCCCC)c3ccc([nH]3)c(CCCCC)c3ccc([nH]3)c(CCCCC)c3nc1C=C3)C=C2 ?
Result: > 100 µM

* * *

tested on: UACC-62 melanoma; assay: NCI tumour cell line growth inhibition, 48 h; in the data active = GI50 below about 0.43 µM; inactive = the rest
Outcome field: choose from t = active, f = inactive

Please review the following examples before continuing.
| Molecule | Label value |
| --- | --- |
| N.N.NC(CS)C(=O)[O-].NC(CS)C(=O)[O-].[Pt+4] (stereo not given) | f |
| O=C(NOCC1CC1)c1ccc(F)c(F)c1Nc1ccc(I)cc1Cl | t |
| O=C1CCC2(C=C(Br)C(=O)C(Br)=C2)O1 | f |

Problem: // param item: O=C(C(Br)Br)C(Br)C(Br)c1ccccc1 (stereo not given) ; yields the recorded call
Result: f

Problem: // param item: C/C=C(\C)C(=O)O[C@H]1C=CC(=O)O[C@H]1CNC(=O)[C@H](C)O ; yields the recorded call
Result: f

Problem: // param item: Nc1ccccc1C#C/C=C\C#Cc1ccc(Cl)cc1Cl ; yields the recorded call
Result: f

Problem: // param item: C=C(CN1CCc2ccccc2C1)c1ccc(C(=O)Nc2ccc(N)cc2)cc1 ; yields the recorded call
Result: f

Problem: // param item: S=C(Nc1ccc(Cl)cc1)Nc1ccc(Cl)cc1 (tested in a mixture with another compound) ; yields the recorded call
Result: f

Problem: // param item: CCN(CC)CCCCCCCNc1c2ccc(Cl)cc2nc2ccc(OC)cc12 ; yields the recorded call
Result: f

Problem: // param item: CCN(CC)CCOc1ccc(/C=C2\CC3C4CC=C5C[C@@H](N6CCCC6)CC[C@]5(C)C4CC[C@]3(C)[C@H]2O)cc1OC (stereo not given in full) ; yields the recorded call
Result: f

* * *

test system: CAKI-1 renal; experiment: NCI tumour cell line growth inhibition, 48 h
// reported TGI per item

| Molecule | Meas value |
| --- | --- |
| COc1nc(C)cc2c(=O)n(-c3ccccc3)n(CCCN3CCN(c4ccc(Cl)cc4)CC3)c(=O)c12 | > 50 µM |
| Nc1c(-c2nc3ccccc3[nH]2)sc(=S)n1-c1ccccc1 | > 100 µM |
| CC(=O)OC1COC(n2c(N)c(C#N)c(C)c(C#N)c2=S)C(OC(C)=O)C1OC(C)=O (stereo not given) | > 100 µM |

Problem: Which TGI is listed for O=C1CCCC2=C1CC1=C(CCCC1=O)N2c1cccc2ccccc12 ?
Result: > 100 µM

Problem: Which TGI is listed for Cc1[nH]c(/C=C2\C(=O)Nc3ccc(F)cc32)c(C)c1C(=O)NC[C@H](O)CN1CCOCC1 ?
Result: > 10 µM

Problem: Which TGI is listed for CC(=O)N1c2ccccc2Sc2cc(C(O)(C(F)(F)F)C(F)(F)F)ccc21 ?
Result: > 10 µM

Problem: Which TGI is listed for N=C1C(=N)c2ccccc2-c2ccccc21 ?
Result: 3.08 µM

Problem: Which TGI is listed for CC(NNC(=S)N1CCCCCC1)c1ccc2ccccc2n1 (stereo not given) ?
Result: 10.8 µM

Problem: Which TGI is listed for CC(=O)/C=C/c1ccc(C2CC(C)=Nc3c(ccc4c3C(=O)c3ccccc3C4=O)N2)cc1 (stereo not given) ?
Result: > 83.5 µM

Problem: Which TGI is listed for O=C1/C(=C\c2cccc(Oc3ccccc3)c2)SC(c2ccccc2)N1c1ccc(Cl)cc1 (stereo not given) ?
Result: > 100 µM

* * *

tested on: MALME-3M melanoma; assay: NCI tumour cell line growth inhibition, 48 h; in the data active = GI50 below about 0.43 µM; inactive = the rest
Outcome field: choose from active, inactive

| Smiles representation | Label value |
| --- | --- |
| COc1cc(/C=C/C(=O)c2ccc(Cl)cc2)ccc1OS(=O)(=O)c1ccc(C)cc1 | inactive |
| C[N+](C)(CCCCCC[N+](C)(C)CCCN1C(=O)c2cc3ccccc3cc2C1=O)CCCN1C(=O)c2ccccc2C1=O | inactive |
| O=C1c2ccccc2-c2c1c1ccccc1c(=O)n2CCNCCNCCn1c2c(c3ccccc3c1=O)C(=O)c1ccccc1-2 | active |
| O=C(NOCC1CC1)c1ccc(F)c(F)c1Nc1ccc(I)cc1Cl | active |
| OCCCCC#Cc1ccccc1C#Cc1ccccc1C(F)(F)F | inactive |

Next:
Problem: // param item: O=C1CCC2(C=C(Br)C(=O)C(Br)=C2)O1 ; yields the recorded call
Result: inactive

* * *

test system: U251 CNS; assay: NCI tumour cell line growth inhibition, 48 h
Measured endpoint: TGI

Recorded TGI, per entry:
| Compound | TGI |
| --- | --- |
| COC(=O)/C(=C\c1c(C)[nH]c2ccccc12)S(=O)(=O)c1ccccc1 | 12.6 µM |
| S=C(Nc1cccc(Cl)c1)Nc1ccccn1 | > 100 µM |
| O=C1CCC2(C=C(Br)C(=O)C(Br)=C2)O1 | 28.9 µM |
| O=C1/C(=C\c2cccc(Oc3ccccc3)c2)SC(c2ccccc2)N1c1ccc(Cl)cc1 (centres undefined) | > 100 µM |
| COC(=O)Nc1nc2ccccc2c(=O)[nH]1 | > 100 µM |

Problem: Quick check: TGI on U251 CNS, item COc1cc(/C=C/C(=O)c2ccc(Cl)cc2)ccc1OS(=O)(=O)c1ccc(C)cc1 ?
Result: 5.38 µM

Problem: Quick check: TGI on U251 CNS, item CCC1(N=[N+]=[N-])C(=O)Nc2cc(C)ccc2C1=O (centres undefined) ?
Result: > 100 µM

Problem: Quick check: TGI on U251 CNS, item COc1ccc(OC)c2nc3c(C(=O)NCCN(C)C)cccc3nc12 ?
Result: 28.6 µM

Problem: Quick check: TGI on U251 CNS, item COC(=N)C12C(N)=NC(OC)(OC)C1(C#N)C21C(=O)N(c2ccccc2)N=C1C (centres undefined) ?
Result: > 100 µM

* * *

test system: BT-549 breast; test: NCI tumour cell line growth inhibition, 48 h
// reported TGI per item
State just the number; it will be interpreted in µM.

| Smiles representation | Measured endpoint | Meas value |
| --- | --- | --- |
| COc1cc(/C=C/C(=O)c2ccc(Cl)cc2)ccc1OS(=O)(=O)c1ccc(C)cc1 | TGI | 18.7 |

Problem: Which TGI is listed for c1ccc(CCN(Cc2nc3ccccc3[nH]2)Cc2nc3ccccc3[nH]2)cc1 ?
Result: 27.2

Problem: Which TGI is listed for O=[N+]([O-])/C=C/c1c[nH]c2ccccc12 ?
Result: 27.5

Problem: Which TGI is listed for COc1cc2c(/C=C3/C(=O)Nc4ccccc43)c(Cl)n(Cc3ccccc3[N+](=O)[O-])c2cc1C ?
Result: 27.8

* * *

// reported TGI per item
test system: OVCAR-4 ovarian; assay: NCI tumour cell line growth inhibition, 48 h

| Molecule | TGI |
| --- | --- |
| S=C(Nc1ccc(Cl)cc1)Nc1ccc(Cl)cc1 (tested in a mixture with another compound) | > 100 µM |
| C[N+](C)(CCCCCC[N+](C)(C)CCCN1C(=O)c2cc3ccccc3cc2C1=O)CCCN1C(=O)c2ccccc2C1=O | > 37.5 µM |
| CC1[C@@H](OCc2ccccc2)COC(=O)N1Cc1ccccc1 (stereo partly drawn) | > 100 µM |

Now consider the entry below.
Problem: Which TGI is listed for CC1NOC(=O)C1N=Nc1ccccc1Cl (stereo not drawn) ?
Result: > 100 µM

* * *

test system: T-47D breast; experiment: NCI tumour cell line growth inhibition, 48 h
Measured endpoint: GI50

Recorded GI50, per entry:
| Molecule | Measured on | GI50 |
| --- | --- | --- |
| O=C1c2ccccc2-c2c1c1ccccc1c(=O)n2CCNCCNCCn1c2c(c3ccccc3c1=O)C(=O)c1ccccc1-2 | T-47D breast | 18.1 µM |
| Cc1ccc2c(=O)c3cccc(CC(=O)O)c3oc2c1C | T-47D breast | > 100 µM |
| CCN(CC)CCCCCCCNc1c2ccc(Cl)cc2nc2ccc(OC)cc12 | T-47D breast | 2.24 µM |

Now consider the entry below.
Problem: Which GI50 is listed for O=C(C(Br)Br)C(Br)C(Br)c1ccccc1 (stereo not given) ?
Result: 2.75 µM

Reference for the values: PubChem BioAssay (NCI)
